Test system: EKVX
Assay: NCI tumour cell line growth inhibition, 48 h
Activity calls are given as the source filed them. Cut-off read from the data, not from the text of the source: active = GI50 up to about 1.1 µM and inactive = higher. Where a SMILES comes first, the peptide text is derived from it. [ ]: non-standard residue; d: D form. The star is where a group is joined. ξ: configuration not given here. ξD = NC(CC(=O)O)C(=O)O; Ac3c = NC1(C(=O)O)CC1; Boc = CC(C)(C)OC(=O)*; OBn = c1ccc(CO*)cc1
Select the matching outcome among active, inactive

Query: Dear colleague, could you share the recorded outcome for c1ccc(-c2nn(-c3ccccc3)[n+](-c3ccccc3)n2)cc1 [TETRAZOLIUM RED] when you have a moment?
Reply: inactive

Query: I'd appreciate the recorded outcome for COP(=O)(OC)[C@H](O)[C@H]1C[C@@H]1c1ccccc1 from this test.
Reply: inactive

Query: Record lookup: outcome of this test for O=C(C(Cl)=C(Nc1ccccc1)Nc1ccccc1)C(Cl)Cl ?
Reply: inactive

Query: For this compound, state the assay outcome: C=C(C(=O)OC)c1cc2ccccc2n1S(=O)(=O)c1ccccc1
Reply: inactive

Query: Recorded call for COc1ccc(C2SC(=N)Nc3c2c(C)nn3C(=O)c2ccc(Cl)cc2)cc1 (configuration not stated) ?
Reply: inactive

Query: Fill in: this test's call for O=C1CSC(=O)/C1=C\NNc1nc2ccccc2o1 is ___
Reply: inactive

Query: Just curious, what result did CC1=NN=C(C)C1/N=N/c1ccc2[nH]c(C)nc2c1 get here?
Reply: inactive

Query: Write down the call the test reported for this compound. Item: COC(=O)C1(NC(=O)C(CC(=O)OCc2ccccc2)NC(=O)OC(C)(C)C)CC1 (configuration not stated) (Boc-[ξD](OBn)-[Ac3c]-OMe)
Reply: inactive

Query: Answer briefly: the call reported for Cn1c(SCc2ccc([N+](=O)[O-])cc2)nnc1C12CC3CC(CC(C3)C1)C2 in this assay.
Reply: inactive

Query: Please state the recorded outcome for this compound: O=C(O)CCSC(=O)Nc1cccc2ccccc12
Reply: inactive

Query: What is the recorded call for this compound in the test? CC(C)(C)C(=O)CC(=O)C(C)(C)C.CC(C)(C)C(=O)CC(=O)C(C)(C)C.[SiH4]
Reply: active

Query: Look up the recorded call for O/N=C1/C(=C/c2ccccc2)CCCC1C(NO)c1ccccc1 (configuration not stated) in this test.
Reply: inactive

Query: What call does the record list for Cc1nc(C)c(C(=O)NNC(N)=S)cc1C(=O)NNC(N)=S ?
Reply: inactive

Query: # outcome recorded in this test, key = CC(=O)OC(C(=O)O)C(OC(C)=O)C(OC(C)=O)C(OC(C)=O)C(=O)O (configuration not stated)
Reply: inactive

Query: Given O=c1c2ccc(Cl)cc2oc2c(CNc3ccc(S(=O)(=O)Nc4ncccn4)cc3)cccc12 , state the outcome it received in this test.
Reply: inactive

Query: What outcome does the record of this test show for Cc1ccc(S(=O)(=O)c2c3nc4ccccc4nc3n3c2[nH]c2ccccc23)cc1 ?
Reply: inactive

Query: For Cn1nc2n(c1=O)CCCN2 , what call appears in the results of this test?
Reply: inactive

Query: Record lookup: outcome of this test for COc1cc(OCc2ccc3nc(-c4ccccc4)c(Cl)nc3c2)cc(OC)c1OC ?
Reply: inactive

Query: Just curious, what result did NC(=O)C12CC3CC(CC(Br)(C3)C1)C2 get here?
Reply: inactive

Query: Answer briefly: the call reported for Cc1nc2ccc(Br)cc2c(=O)n1-c1nnc(C(C)(C)C)s1 in this assay.
Reply: inactive

Query: Record lookup: outcome of this test for O=C(NNC(=S)Nc1ccc(Cl)cc1)C12CC3CC(CC(C3)C1)C2 ?
Reply: inactive

Query: Would you mind telling me which call this test gave Cc1c(Cl)c(=O)oc2cc(OCC(O)COC(C)C)ccc12 (configuration not stated) ?
Reply: inactive

* * *

Tested on: UACC-62
Assay: NCI tumour cell line growth inhibition, 48 h
Active and inactive are the calls of the source. No stated cut-off is given here; in the data, active = GI50 up to about 1.1 µM and inactive = higher. Where a SMILES comes first, the peptide text is derived from it. [ ]: non-standard residue; d: D form. The star is where a group is joined. ξ: configuration not given here. ξD = NC(CC(=O)O)C(=O)O; Ac3c = NC1(C(=O)O)CC1; Boc = CC(C)(C)OC(=O)*; OBn = c1ccc(CO*)cc1
Answer with one of the outcomes label 1 = active, label 0 = inactive

Query: Fill in: this test's call for CC(C)=CCc1cc(/C=C/C(=O)O)cc(CC=C(C)C)c1O [ARTEPILLIN] is ___
Reply: label 0

Query: // param item: O=C(CN1C(=O)c2ccccc2C1=O)NC1(C(=O)O)CCCC1 ; yields the recorded call
Reply: label 0

Query: Outcome logged for Cc1ccc(S(=O)(=O)N/N=C(/CC(=O)c2c(C)[n+]([O-])c3ccccc3[n+]2[O-])C(=O)Nc2ccccc2C)cc1 in this assay:
Reply: label 0

Query: Could you please tell me the result logged for COc1ccc(CNC(=O)[C@H](Cc2ccc(O)cn2)NC(C)=O)cc1OC in this assay?
Reply: label 0

Query: Per the records of this test, what outcome belongs to CCOC(=O)C1S/C(=N\c2ccc(Cl)c(Cl)c2)N=C1C (stereo not given) ?
Reply: label 0

Query: Which outcome did this test record for the molecule COc1ccc(/C=C(\NC(=O)c2ccccc2)c2nc3ccccc3[nH]2)cc1 ?
Reply: label 0

Query: What did the test return for CCn1ncc2c1nc(-c1ccccc1)c[n+]2[O-] ?
Reply: label 0

Query: Which result was noted for this molecule in the test: NNC(=O)C(O)C(O)C(O)CO (stereo not given)
Reply: label 0

Query: Recorded test outcome, item C=CCC1([C@H](C)[C@@H](OC(C)=O)c2cc(OC)c(OC)c(OC)c2)C[C@@H](OC)CCC1=O (stereo not given in full)
Reply: label 0

Query: Which outcome did this test record for the molecule CC1(C)Cc2c(sc3[nH]c(=S)[nH]c(=S)c23)CS1 ?
Reply: label 0

Query: What classification did [N-]=[N+]=NC1=C(N=[N+]=[N-])c2cccc3cccc(c23)C1=O end up with in this test?
Reply: label 0

Query: Could you please tell me the result logged for COc1ccc2c(ccc3c(COC(=O)NC(C)C)c(COC(=O)NC(C)C)n(C)c32)c1 in this assay?
Reply: label 0

Query: Hey, what did the test say about CN(C)CCCSc1nc2ccccc2[nH]1 ?
Reply: label 0

Query: Called result for Clc1ccccc1-c1nnc2c(-c3ccccc3)nc3ccccc3n12
Reply: label 0

Query: Give the logged outcome of this assay for the following molecule: CCSC1=N/C(=C\c2ccco2)C(Nc2ccc(C)cc2)=N1
Reply: label 0

Query: # outcome recorded in this test, key = O=C1c2nc3n(c2C(=O)c2c1nc1n2CCC1)CCC3
Reply: label 0

Query: Which outcome did this test record for the molecule NC(=S)N/N=C1\CCc2ccccc2C1 ?
Reply: label 0

Query: Call for entry O=C(NC/C(Cl)=C/Cl)Nc1c2ccccc2nc2ccccc12 :
Reply: label 0

Query: Recorded test call requested for CSc1nc(-c2cc3c(c(SC)n2)CCC3)cc2c1CCC2
Reply: label 0

Query: Kindly provide the recorded test outcome for the following molecule: COC(=O)C1(NC(=O)C(CC(=O)OCc2ccccc2)NC(=O)OC(C)(C)C)CC1 (stereo not given) (Boc-[ξD](OBn)-[Ac3c]-OMe)
Reply: label 0

Query: # outcome recorded in this test, key = CC(C)(C)OC(=O)[N+](=N)C(=O)C1CCC(=O)N1C(=O)OCc1ccccc1 (stereo not given)
Reply: label 0

Query: Write down the call the test reported for this molecule. Item: O=C1C(C(O)(C(F)(F)F)C(F)(F)F)CCC1C(O)(C(F)(F)F)C(F)(F)F (stereo not given)
Reply: label 0

Query: What did the test return for COc1cc(Nc2nc3ccc(C(F)(F)F)cc3nc2-c2ccccc2)cc(OC)c1OC ?
Reply: label 0

Query: Returns: the outcome recorded for COC1(C2c3ccccc3CCN2C(=O)OC(C)(C)C)C(=O)C(c2ccccc2)=C1N(C)C (stereo not given) in this assay.
Reply: label 0

Query: Per the assay record, what outcome was assigned to Cn1cnc([N+](=O)[O-])c1Sc1nc2cccnc2[nH]1 ?
Reply: label 0

Query: Status in this test for COC1/C=C\C=C(/C)C(=O)NC2=CC(=O)C(O)=C(CC(C)CC(OC)C(O)C(C)/C=C(\C)C1OC(N)=O)C2=O (stereo not given) ?
Reply: label 1

Query: GET /call?item= CC(C)N(C(C)C)S(=O)(=O)C[C@]12CC[C@H](CC13OCC(CS(=O)(=O)c1ccccc1)O3)C2(C)C (stereo not given in full) returns the recorded outcome of this test.
Reply: label 0

Query: Fill in: this test's call for COc1ccc(C(=O)C2CCC(C(=O)O)C2)cc1 (stereo not given) is ___
Reply: label 0

Query: Check the results log: what was the call for CC(O[Si](C)(C)C)C1C=CC(C)n2c(=O)n(-c3ccccc3)c(=O)n21 (stereo not given) ?
Reply: label 0

Query: // outcome(item) with item = CN1C2C=C(c3ccccc3)CC1CC2 (stereo not given)
Reply: label 0

Query: Lab log entry: CN(NC(=O)CCCl)C1=NCCCCN1 — outcome as called in the assay?
Reply: label 0

Query: Hey, what did the test say about CSc1c2c(C)n[nH]c2nn1-c1ccccc1 ?
Reply: label 0

Query: Kindly provide the recorded test outcome for the following molecule: CCOC(=O)C1Oc2ccc([N+](=O)[O-])c3c2C1(O)CCC3 (stereo not given)
Reply: label 0

Query: Assay result, entry Cn1c(=O)c2c(nc3n2CCC(=O)N3CCCCl)n(C)c1=O — outcome?
Reply: label 0

Query: Which outcome was entered for the molecule COC(=O)C1CC2(C)C=CC1N(C(=O)OCc1ccccc1)C2 (stereo not given) in this test?
Reply: label 0

Query: Status in this test for C=CCOC(=O)CCCCCCCCCCCCCCCOC(=O)c1c(CCC[C@@H](C)O[Si](C)(C)C(C)(C)C)nc([O-])[n+]2c1CC[C@H]2CC1(CC/C=C\[C@H](CC)O[Si](C(C)C)(C(C)C)C(C)C)OCCO1 ?
Reply: label 0

Query: Field: outcome | Entry: O=C(O)CC(Cc1ccccc1)C(=O)O (stereo not given)
Reply: label 0

Query: Just curious, what result did C/C(=N/NC(N)=S)c1ccc[nH]1 get here?
Reply: label 0

Query: Write down the call the test reported for this molecule. Item: COC(=O)c1ccc(NC(=O)O/N=C(\Cl)C(C)C)cc1
Reply: label 0

Query: How was COC(=O)C1(c2ccc(N(C)C)cc2OC)CCCN(C(=O)Oc2ccccc2[N+](=O)[O-])CCc2c1[nH]c1ccccc21 (stereo not given) classified in this test?
Reply: label 0

Every entry's value here was drawn from ChEMBL document CHEMBL1201862.
